molecular target: PRMT5 (Homo sapiens (Human), UniProt O14744)
Sequence (O14744 2-637): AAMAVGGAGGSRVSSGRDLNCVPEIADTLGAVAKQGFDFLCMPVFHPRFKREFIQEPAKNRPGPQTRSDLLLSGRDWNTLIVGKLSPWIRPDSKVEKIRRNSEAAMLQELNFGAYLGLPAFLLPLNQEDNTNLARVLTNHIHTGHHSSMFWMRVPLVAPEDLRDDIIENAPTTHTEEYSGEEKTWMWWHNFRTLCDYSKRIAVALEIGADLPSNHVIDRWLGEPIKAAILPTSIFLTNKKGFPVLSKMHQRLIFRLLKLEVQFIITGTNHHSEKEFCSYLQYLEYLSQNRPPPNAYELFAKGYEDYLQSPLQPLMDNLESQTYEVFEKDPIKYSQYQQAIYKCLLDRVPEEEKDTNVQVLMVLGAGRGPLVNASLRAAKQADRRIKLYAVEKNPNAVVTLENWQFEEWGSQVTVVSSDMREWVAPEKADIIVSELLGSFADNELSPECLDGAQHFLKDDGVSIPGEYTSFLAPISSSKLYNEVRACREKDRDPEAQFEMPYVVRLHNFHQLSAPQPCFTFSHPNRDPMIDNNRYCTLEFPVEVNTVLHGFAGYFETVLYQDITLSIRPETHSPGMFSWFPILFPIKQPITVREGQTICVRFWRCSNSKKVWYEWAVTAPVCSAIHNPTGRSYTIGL
Sequence (Q9BQA1 2-342 partner): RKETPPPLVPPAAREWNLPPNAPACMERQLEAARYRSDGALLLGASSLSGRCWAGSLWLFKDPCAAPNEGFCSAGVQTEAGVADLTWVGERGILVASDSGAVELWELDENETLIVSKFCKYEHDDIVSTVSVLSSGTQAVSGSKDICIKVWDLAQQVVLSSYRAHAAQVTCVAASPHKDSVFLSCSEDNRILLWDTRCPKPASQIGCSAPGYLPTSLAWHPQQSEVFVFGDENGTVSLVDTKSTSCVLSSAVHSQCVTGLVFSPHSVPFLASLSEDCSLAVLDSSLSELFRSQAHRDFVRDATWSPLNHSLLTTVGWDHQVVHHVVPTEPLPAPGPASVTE
pIC50: −log10 of the molar value.
Respond with criterion met for pIC50 values of 7 and above, criterion not met for values below.

O=c1[nH]c2ccccc2c(=O)n1C[C@@H](O)CN1CCc2ccccc2C1; criterion not met

Enquiry: Can CC(C)Cn1c(=O)n(C[C@H](O)CN2CCc3ccccc3C2)c(=O)c2ccc(Cl)cc21 be said to have pIC50 at or above 7?
Return: criterion met

Enquiry: Now give it for O=c1c2ccc(Br)cc2n(CC2CC2)c(=O)n1C[C@H](O)CN1CCc2ccccc2C1 too.
Return: criterion met

Enquiry: Would you kindly repeat that for O=c1[nH]c2cc(Br)ccc2c(=O)n1C[C@H](O)CN1CCc2ccccc2C1 ?
Return: criterion met

Enquiry: Field entry: Cn1c(=O)n(CC(O)CN2CCc3ccccc3C2)c(=O)c2ccccc21 (centres unmarked)
Return: criterion not met

Enquiry: Moving on to O=c1[nH]c2ccc(F)cc2c(=O)n1C[C@H](O)CN1CCc2ccccc2C1
Return: criterion not met

Cited source for all entries: patent US20250084060A1
